Measured GI50 accompanies every entry in the list below.
System: HS 578T breast
Assay: NCI tumour cell line growth inhibition, 48 h

See these solved cases before continuing.
# compound, reported.result
rows = [
    ("COc1ccc2c3/c(=C\\c4ccc(N(C)C)cc4)c4ccccc4n3[n+](C)c2c1", "162 nM"),
    ("CCCCCCCCN=C(NCCCCCCCC)SCc1cccc2ccccc12", "1610 nM"),
]

If you can, please state the reported GI50 value of COc1ccc(-c2c(-c3ccc(C#N)c(F)c3)nc(N3CCC(N)CC3)n(C)c2=O)cc1F .
13200 nM

If you can, please state the reported GI50 value of COc1ccc2nc3ccccc3c(NCCNCC(C)O)c2c1 (stereo not given) .
1100 nM

If you can, please state the reported GI50 value of CCOCCOCCOCCOCCOCCOCCOCCOCCOCCO (tested in a mixture with another compound) .
1810 nM

If you can, please state the reported GI50 value of C=C(C)C(=O)Nc1ccc(-c2c(-c3ccc(Oc4nccc(C)n4)c(F)c3)c3c(N)ncnc3n2C)cc1 .
1090 nM

If you can, please state the reported GI50 value of C(=N\Nc1ccc2ccccc2n1)/c1ccccn1 .
2360 nM

If you can, please state the reported GI50 value of FC(F)(F)c1cccc(-c2[nH]ncc2-c2nnnn2-c2ccccc2)c1 .
4850 nM

If you can, please state the reported GI50 value of COc1ccc(-c2[nH]ncc2Nc2cc(OC)c(OC)c(OC)c2)cc1 .
1300 nM

If you can, please state the reported GI50 value of CN(C)c1ccc2[nH]c3c(C(N)=O)cc(=O)c(=O)c=3oc2c1 .
973 nM
